residual activity values for the compounds below.
# tgt: Serine/threonine-protein kinase Sgk1 (Homo sapiens) (UniProt O00141)
# Sequence (O00141 whole entry): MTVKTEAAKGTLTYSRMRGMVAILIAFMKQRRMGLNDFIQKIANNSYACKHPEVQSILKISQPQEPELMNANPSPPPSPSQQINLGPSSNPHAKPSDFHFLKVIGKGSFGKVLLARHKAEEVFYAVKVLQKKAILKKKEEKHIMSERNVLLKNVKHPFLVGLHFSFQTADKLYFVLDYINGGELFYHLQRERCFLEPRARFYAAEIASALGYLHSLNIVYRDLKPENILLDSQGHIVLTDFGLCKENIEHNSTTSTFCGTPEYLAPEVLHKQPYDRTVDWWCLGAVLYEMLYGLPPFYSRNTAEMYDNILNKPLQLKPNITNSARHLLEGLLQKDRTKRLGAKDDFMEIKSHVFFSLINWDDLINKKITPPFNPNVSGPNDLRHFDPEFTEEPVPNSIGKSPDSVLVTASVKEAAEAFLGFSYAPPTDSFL
# measurement setup: at 10 µM
Lab book: enter the figure in %, no units written.

These solved cases illustrate the format of a correct answer.
- smiles code: "O=C(CCCc1ccc(-c2ccccc2F)cc1)Nc1ccc(O)cc1"
  tgt: "Serine/threonine-protein kinase Sgk1 (Homo sapiens) (UniProt O00141)"
  residual activity [%]: 179
- smiles code: "O=C1NC(=O)C(c2c[nH]c3ccccc23)=C1c1c[nH]c2ccccc12"
  tgt: "Serine/threonine-protein kinase Sgk1 (Homo sapiens) (UniProt O00141)"
  residual activity [%]: 65

Would you kindly look at the next entry?
Per the records, this compound ( Nc1ncnc2c1c(-c1ccc(Oc3ccccc3)cc1)cn2C1CCCC1 ) has residual activity equal to 111

----------
# tgt: Homeodomain-interacting protein kinase 2 (Homo sapiens) (UniProt Q9H2X6)
# Sequence (Q9H2X6 whole entry, looked up): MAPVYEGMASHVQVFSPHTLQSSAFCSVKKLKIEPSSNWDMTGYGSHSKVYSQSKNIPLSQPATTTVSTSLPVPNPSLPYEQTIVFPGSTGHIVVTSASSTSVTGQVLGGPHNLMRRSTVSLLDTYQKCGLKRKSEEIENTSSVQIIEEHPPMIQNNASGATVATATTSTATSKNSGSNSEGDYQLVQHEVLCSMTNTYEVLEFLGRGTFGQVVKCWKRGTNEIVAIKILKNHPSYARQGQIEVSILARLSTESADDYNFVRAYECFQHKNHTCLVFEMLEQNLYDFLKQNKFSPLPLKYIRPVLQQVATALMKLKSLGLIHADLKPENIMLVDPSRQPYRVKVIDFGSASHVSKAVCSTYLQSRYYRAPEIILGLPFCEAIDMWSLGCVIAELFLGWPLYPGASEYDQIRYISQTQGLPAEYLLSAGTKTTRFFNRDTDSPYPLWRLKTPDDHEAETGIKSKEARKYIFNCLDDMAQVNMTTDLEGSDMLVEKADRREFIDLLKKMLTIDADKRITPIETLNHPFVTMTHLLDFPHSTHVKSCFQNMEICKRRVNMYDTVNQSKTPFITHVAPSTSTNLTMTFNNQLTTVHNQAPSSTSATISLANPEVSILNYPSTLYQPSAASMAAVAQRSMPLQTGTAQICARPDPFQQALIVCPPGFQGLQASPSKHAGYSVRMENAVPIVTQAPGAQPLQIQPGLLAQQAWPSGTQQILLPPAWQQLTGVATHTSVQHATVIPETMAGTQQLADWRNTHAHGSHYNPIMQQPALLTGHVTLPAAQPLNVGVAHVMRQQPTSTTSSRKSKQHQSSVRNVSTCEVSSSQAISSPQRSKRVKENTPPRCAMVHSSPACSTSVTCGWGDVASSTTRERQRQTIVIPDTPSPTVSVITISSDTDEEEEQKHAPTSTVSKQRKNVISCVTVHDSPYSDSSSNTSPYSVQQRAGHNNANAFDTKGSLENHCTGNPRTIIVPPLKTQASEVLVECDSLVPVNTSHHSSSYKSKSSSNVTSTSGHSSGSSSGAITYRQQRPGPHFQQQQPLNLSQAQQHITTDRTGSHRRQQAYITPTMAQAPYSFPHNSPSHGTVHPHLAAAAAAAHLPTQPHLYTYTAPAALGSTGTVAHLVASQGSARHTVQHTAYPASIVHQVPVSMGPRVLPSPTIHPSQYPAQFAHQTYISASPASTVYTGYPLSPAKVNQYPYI
# measurement setup: at 1 µM
Please use condition met whenever residual activity is not below 80%, and condition not met whenever it is.

Example entries and their recorded answers appear below.
- smiles code: "CC(C)(C)n1nc(Cc2cccc3ccccc23)c2c(N)ncnc21"
  classification: "condition met"
- smiles code: "Nc1ncnc2c1c(-c1ccc(Oc3ccccc3)cc1)cn2C1CCCC1"
  classification: "condition met"
- smiles code: "O=C(c1ccccc1)c1ccc(N2CCOCC2)cc1O"
  classification: "condition met"
- smiles code: "N#C/C(=C\\c1ccc(O)c(O)c1)C(=O)NCc1ccccc1"
  classification: "condition met"
- smiles code: "O=C(O)/C=C/c1cc(Br)c(Br)c(Br)c1Br"
  classification: "condition met"

Query: Could you verify whether the entry O=C1NC(=O)c2c1c1c3ccccc3[nH]c1n1cncc21 shows residual activity of no less than 80%?
Reply: condition not met

----------
# tgt: Tyrosine-protein kinase HCK (Homo sapiens)
# measurement setup: at 1 µM
Classes are defined on residual activity with ranges lo: < 40%; med: ≥ 40% and < 90%; hi: ≥ 90%

- smiles code: "O=C1NC(=O)c2c1c1c3ccccc3[nH]c1n1cncc21"
  classification: "lo"

Query: Band for the recorded residual activity of COc1ccc(Cl)cc1NC(=O)Nc1cc(C)nc2ccccc12 ?
Reply: hi

Query: Note: place this compound into its band. Item: CC(C)[C@H](CO)Nc1nc(Nc2cc(N)cc(Cl)c2)c2ncn(C(C)C)c2n1
Reply: med

Query: Assign a category based on measured residual activity for NCCNc1ncc(C(N)=O)c(Nc2cccc(C(F)(F)F)c2)n1 and give only the class name.
Reply: med

Query: Form: Item = CCCC(=O)Oc1ccc2[nH]c(C(=O)c3cc4ccccc4[nH]3)cc2c1 ; Class = ?
Reply: hi

Query: Consider COc1cc2nccc(Oc3ccc(NC(=S)NC(=O)c4ccccc4C)cc3)c2cc1OC . To which residual activity class does it belong?
Reply: lo

Query: Lab log: O=C(O)/C=C/c1cc(Br)c(Br)c(Br)c1Br — assign residual activity category
Reply: hi

Query: In plain terms, what class is Cn1c2ccccc2c2c3c(c4c5ccccc5n(CCC#N)c4c21)CNC3=O ?
Reply: med

Query: For the record Nc1nc(Nc2ccc(S(N)(=O)=O)cc2)nn1C(=O)c1c(F)cccc1F , report the class its residual activity corresponds to.
Reply: med

Query: Tag the class for Nc1ncnc2c1c(-c1ccc(Oc3ccccc3)cc1)cn2C1CCCC1
Reply: lo
